Provenance of the data: patent US20050282755A1

Tested on: Pseudomonas aeruginosa ATCC 27853
Assay: MIC, NCCLS M7-A6 broth microdilution (Table 9, no superscript)
Format: cell-based
Details: ATCC 27853
Non-standard residues stand in square brackets, D forms with d. Residues, ends and D or L forms follow the SMILES beside them. *: point of attachment. Lauroyl = CCCCCCCCCCCC(=O)*

COMPOUND	MIC P. aeruginosa
CCCCCCCCCCCC(=O)N[C@H](C)C(=O)N[C@H](CO)C(=O)N[C@H](CCCNC(=N)N)C(=O)N[C@H](Cc1c[nH]c2ccccc12)C(=O)N[C@H](CCCNC(=N)N)C(=O)N[C@H](CC(=O)O)C(=O)N[C@@H](C(=O)N[C@H](C)C(=O)N[C@H](CCCNC(=N)N)C(=O)N[C@H](CC(N)=O)C(=O)N[C@H](Cc1ccccc1)C(=O)N[C@H](CCSC)C(=O)N[C@H](CCCNC(=N)N)C(N)=O)C(C)C [Peptide 236, Lauryl-asrwrdvarnfmr-NH2] (Lauroyl-[dA][dS][dR][dW][dR][dD][dV][dA][dR][dN][dF][dM][dR]-NH2)	>64 µg/mL
